Measured On: Recombinant Human DLL4 (delta-like protein 4) (human) (UniProt Q9NR61)
Procedure Details: ELISA, DLL4 coated on plate, Fab at 100 nM (2-fold dilution series), absorbance at 450 nm
Measured Property: ELISA signal
# output: bare number, no unit

Study these solved cases before continuing.
{"Binder": "Fab VH5-51_IGHD5-18*01>3_IGHJ4*01 G100K/G104T G24A/S28R/G35V Y107F & V3-4_IGLJ1*01 (wildtype) (Fab, V domains shown) VH: EVQLVQSGAEVKKPGESLKISCKTSGYRFTSYWIVWVRQMPGKGLEWMGIIYPGDSDTRYSPSFQGQVTISADKSISTAYLQWSSLKASDTAMYYCARRKYSYTYDFFDYWGQGTLVTVSS VL: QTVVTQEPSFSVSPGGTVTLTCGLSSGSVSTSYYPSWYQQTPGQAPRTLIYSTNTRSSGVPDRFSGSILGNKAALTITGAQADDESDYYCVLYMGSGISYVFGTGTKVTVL", "ELISA signal": 0.28}
{"Binder": "Fab VH5-51_IGHD5-18*01>3_IGHJ4*01 G100K/G104T G24L/S28R/G35V Y105H & V3-4_IGLJ1*01 (wildtype) (Fab, V domains shown) VH: EVQLVQSGAEVKKPGESLKISCKTSGYRFTSYWIVWVRQMPGKGLEWMGIIYPGDSDTRYSPSFQGQVTISADKSISTAYLQWSSLKASDTAMYYCARRKYSYTHDYFDYWGQGTLVTVSS VL: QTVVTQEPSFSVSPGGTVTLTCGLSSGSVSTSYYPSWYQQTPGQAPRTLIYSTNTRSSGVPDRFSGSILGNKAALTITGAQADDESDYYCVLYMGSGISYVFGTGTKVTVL", "ELISA signal": 0.23}

Now let's try a different one.
[in] Look at this binder and give its reported ELISA signal. Fab VH5-51_IGHD5-18*01>3_IGHJ4*01 G100K/G104T G24L/S28R/G35V D109Q & V3-4_IGLJ1*01 (wildtype) (Fab, V domains shown) VH: EVQLVQSGAEVKKPGESLKISCKTSGYRFTSYWIVWVRQMPGKGLEWMGIIYPGDSDTRYSPSFQGQVTISADKSISTAYLQWSSLKASDTAMYYCARRKYSYTYDYFQYWGQGTLVTVSS VL: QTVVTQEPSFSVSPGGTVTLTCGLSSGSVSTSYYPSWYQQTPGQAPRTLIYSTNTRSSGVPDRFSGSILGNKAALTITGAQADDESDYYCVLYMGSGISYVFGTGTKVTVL
[out] 0.3
